ASSAY: soluble fraction after stress (log2 fold change); higher = more stays soluble; pooled small domains, quantitative proteomics;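 note: 20 min heating vs room temperature control held 20 min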
TEST CONTEXT: stress: 75 degC
I would appreciate it if you labelled entries Met when soluble fraction (log2) is -0.7 or higher, otherwise Not met.

Check out these entries, answers already filled in.
| SEQUENCE | LABEL VALUE |
| --- | --- |
| HMPFGIYGGKVSSLDDLKDKAAVLVPNDVSNEARALLLLEAQGLIKLKEGVGLEATRNDIVEN | Met |
| HMGMTRPLFVTDPGLVRIGLVSPIFEKLGSGKLSPQLFDQVKEDPPEQTVFDGVEFARETGIDGVIGFG | Met |
| HMDRGDVTREALIKAAIEIFGRDGFHAASTRAIAERAGANQALIGYHFRGKLGLYHATFEYIIGKI | Met |
| HMFETLVLALAQAWPAERGPVEALQFEGGRLSLQRSGFADEQVEALRQRLSSEGWTLQTEQGRLILNKAG | Not met |
| HMNADSLIGENIRISERVSNMDQTGMAVVHGQEWTVRTRNDNEIIEPGEEAKILAISGVKLIVEK | Met |
| HMHLRYTYIYDNENRVTSKEASKWDSTQEAWVPYFKMNVSYVNNEVELSYARWNSKSNAYDSSIKKTI | Not met |

Is the recorded value of soluble fraction (log2) equal to or greater than -0.7 for this sequence? HMDAGIVVPDTYNKPLAEAVASLEGEGFRTEKKEGYSDTVAKGNVMSQNPEAGTNAERGSTVTIVISQGPQ
Met

Is the recorded value of soluble fraction (log2) equal to or greater than -0.7 for this sequence? HMPSDLQATLRAVQGMLQGVEGVDARLAGQRILLEGDSADARARERAAAIAGIFPGVVIDFVG
Met

Is the recorded value of soluble fraction (log2) equal to or greater than -0.7 for this sequence? HMRWAAIMGREVAAHSTPESLVEGKLHIRTDTTAWATQLRLMSADIVRRLNEVLGEGTVLEVDVRG
Not met

Is the recorded value of soluble fraction (log2) equal to or greater than -0.7 for this sequence? HMNQYIFVLNEKGARITSFVDNTIPKEELIALAKQDYPNAADYIYSADGDSMLDEFMRGKLYVNGQFVAA
Not met

Is the recorded value of soluble fraction (log2) equal to or greater than -0.7 for this sequence? HMLGKSNAERQLDLILGAIERSITGVSRSKLMQAYHLDSRGATAAFETLEQRGLITRSKSGRTELLIPTRV
Not met

Is the recorded value of soluble fraction (log2) equal to or greater than -0.7 for this sequence? HMEDKFEYQGELKSLIEPTSFSELVSALNVRDTLQAIIDFAMREEDTSGYEELKVRQNDYIQEYLNSIGNF
Not met

Is the recorded value of soluble fraction (log2) equal to or greater than -0.7 for this sequence? HMYSQIGYGSSGSDVRKLQEILNGKGYNLSVDGQFGAKTKSAVRDYQSKNGLSVDGIVGVNTWGKLT
Met

Is the recorded value of soluble fraction (log2) equal to or greater than -0.7 for this sequence? HMETSIQFIRLEIGHNHPWVNQTLKEIPTIPGTLIAAVLRGDEDQAIIPKGDTLLKEGDSVIIGAKEYQD
Not met

Is the recorded value of soluble fraction (log2) equal to or greater than -0.7 for this sequence? HMQEAGLITQRIREMREKENWTQEYMAEQLGMSENGYAKIERGESNLSLKRLQQIADIFEVESAELLK
Met

Is the recorded value of soluble fraction (log2) equal to or greater than -0.7 for this sequence? HMRILGIDPGTRITGYGIIDIEGNRLRHVDNGIIKTRSSDALPLRLKVIYDGLTAVLKQYSPQAV
Met
